system: K562 CRISPRi cells; assay: Perturb-seq pooled growth measurement (sgRNA counts, growth phenotype γ, relative activity); assay type: cell-based, human; details: sequencing read counts; T0 = day two after transduction
PROPERTY: Perturb-seq pooled growth sgRNA counts, T0
Please reply with the number alone, leaving off any unit.

Request: Lab note: need Perturb-seq pooled growth sgRNA counts, T0 for TUBB_+_30688126.23-P1_00: sgRNA targeting TUBB, GCGGCAGGAAGGTTCTGAGA, SEQ ID NO: 23 (listed as DNA, chemistry not fully specified) on K562 CRISPRi cells, anyone have it?
Result: 13570

Request: // same read-out, input: MTOR_+_11322547.23-P1P2_00: sgRNA targeting MTOR, GGGCAGGGGGCCTGAAGCGG, SEQ ID NO: 146 (listed as DNA, chemistry not fully specified)
Result: 17632

Request: // same read-out, input: ALDOA_+_30077139.23-P1P2_06: sgRNA targeting ALDOA, GGTCACCAGGATCCCTTCTG, SEQ ID NO: 157 (listed as DNA, chemistry not fully specified)
Result: 6015

Request: // same read-out, input: CAD_+_27440280.23-P1P2_13: sgRNA targeting CAD, GGCTGGAGAGAAGCCTGGCG, SEQ ID NO: 105 (listed as DNA, chemistry not fully specified)
Result: 11874

Request: // same read-out, input: POLR1D_+_28196016.23-P1_00: sgRNA targeting POLR1D, GGGAAGCAAGGACCGACCGA, SEQ ID NO: 11 (listed as DNA, chemistry not fully specified)
Result: 11671

Request: // same read-out, input: RPL9_+_39460483.23-P1P2_07: sgRNA targeting RPL9, GGATGTTTCTGCGCTCGTGG, SEQ ID NO: 54 (listed as DNA, chemistry not fully specified)
Result: 7336

Request: // same read-out, input: RPS18_+_33239917.23-P1P2_02: sgRNA targeting RPS18, GCTGGGATGCCGCTGGATCA, SEQ ID NO: 42 (listed as DNA, chemistry not fully specified)
Result: 5486

Request: // same read-out, input: RPS14_+_149829238.23-P1P2_04: sgRNA targeting RPS14, GAGGCCCGCGCGCGACAATC, SEQ ID NO: 48 (listed as DNA, chemistry not fully specified)
Result: 9244

Request: // same read-out, input: COX11_+_53045977.23-P1P2_04: sgRNA targeting COX11, GGCTCTGGCGCCCTGGATGG, SEQ ID NO: 143 (listed as DNA, chemistry not fully specified)
Result: 5234

Request: // same read-out, input: RPS18_+_33239917.23-P1P2_01: sgRNA targeting RPS18, GCTGCAATGCCGCTGGATCA, SEQ ID NO: 41 (listed as DNA, chemistry not fully specified)
Result: 5202

---

Give measured Perturb-seq pooled growth sgRNA counts, d5 for each item. Keep answers brief.
Tested on: K562 CRISPRi cells
Experiment: Perturb-seq pooled growth measurement (sgRNA counts, growth phenotype γ, relative activity)
Assay type: cell-based, human
Settings: sequencing read counts; 5 days of growth (day seven after transduction)
Description: Finally, we sought to use intermediate-activity sgRNAs to explore relationships between expression levels of various genes and the resulting cellular phenotypes. […] In addition to the single-cell transcriptomes, we measured bulk growth phenotypes conferred by sgRNAs in these cells. […]
Please reply with the number alone, leaving off any unit.

Request: What does the record list as Perturb-seq pooled growth sgRNA counts, d5 for MTOR_+_11322547.23-P1P2_06: sgRNA targeting MTOR, GGGCAGGGGGGCTGAAGCGG, SEQ ID NO: 149 (listed as DNA, chemistry not fully specified) ?
Result: 3358

Request: // same read-out, input: RPL9_+_39460483.23-P1P2_04: sgRNA targeting RPL9, GGATGTTTCAGTGCTCGTGG, SEQ ID NO: 53 (listed as DNA, chemistry not fully specified)
Result: 3975

Request: // same read-out, input: POLR1D_+_28196016.23-P1_01: sgRNA targeting POLR1D, GGGAAGCCAGGACCGACCGA, SEQ ID NO: 76 (listed as DNA, chemistry not fully specified)
Result: 4460
